Overview of reported IC50 across a group of compounds:
- testSystem: human Yes1 enzyme (Homo sapiens)
- Construct: made in house
- Sequence (P07947 whole entry): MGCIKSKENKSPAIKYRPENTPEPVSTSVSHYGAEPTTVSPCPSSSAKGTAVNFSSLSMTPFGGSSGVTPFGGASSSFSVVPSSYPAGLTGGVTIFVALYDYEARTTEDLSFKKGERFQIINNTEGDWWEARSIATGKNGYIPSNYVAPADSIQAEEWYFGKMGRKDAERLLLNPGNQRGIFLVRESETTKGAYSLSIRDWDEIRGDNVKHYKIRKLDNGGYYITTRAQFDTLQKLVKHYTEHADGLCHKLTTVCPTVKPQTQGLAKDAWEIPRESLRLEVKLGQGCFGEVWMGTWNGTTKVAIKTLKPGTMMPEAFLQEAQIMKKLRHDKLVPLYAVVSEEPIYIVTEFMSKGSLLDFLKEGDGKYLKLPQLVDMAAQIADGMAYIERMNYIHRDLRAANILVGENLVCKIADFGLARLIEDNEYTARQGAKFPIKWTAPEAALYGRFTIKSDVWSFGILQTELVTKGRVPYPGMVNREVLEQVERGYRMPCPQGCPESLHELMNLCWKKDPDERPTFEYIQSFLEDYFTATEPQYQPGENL
- measurementProtocol: Yes1 enzyme inhibitory activity (time-resolved fluorometry, biotinylated peptide phosphorylation)
- Assay type: biochemical
- experimentalSetup: read-out: YES_IC50
Form field: result (number plus unit)

Completed entries (count: 2):
[
  {
    "compound": "Cc1cc(Oc2ccccc2F)ccc1-n1ncc(C(=O)c2cc3cc(OCC(F)F)c(C4CCN(C(=O)OC(C)(C)C)CC4)cc3[nH]2)c1N",
    "testSystem": "human Yes1 enzyme (Homo sapiens)",
    "assayMetric": "IC50",
    "endpointResult": "5.6 nM"
  },
  {
    "compound": "Cc1cc(-n2ncc(C(=O)c3cc4cc(OC[C@H](O)CO)c(NS(C)(=O)=O)cc4[nH]3)c2N)ccc1Oc1ccccc1F",
    "testSystem": "human Yes1 enzyme (Homo sapiens)",
    "assayMetric": "IC50",
    "endpointResult": "1.9 nM"
  }
]

Note: attention shifts to another entry.
### Prompt Any idea what its IC50 is? The compound is Cc1cc2cc(C(=O)c3cnn(-c4ccc(Oc5ccccc5F)cc4C)c3N)[nH]c2cc1N1C(=O)NC2(CCN(Cc3ccccc3)C2)C1=O (stereo not drawn)
### Response 2.9 nM

FYI, the data here is from patent US10479780B2.
